Where these numbers come from: patent US12037324B2

We begin with a simple list: items and their reported BRET β-Arrestin2 High AT1R Expression Ymax (%).
- system-tested: hAT1R (Homo sapiens, UniProt P30556)
- Sequence (P30556 whole entry): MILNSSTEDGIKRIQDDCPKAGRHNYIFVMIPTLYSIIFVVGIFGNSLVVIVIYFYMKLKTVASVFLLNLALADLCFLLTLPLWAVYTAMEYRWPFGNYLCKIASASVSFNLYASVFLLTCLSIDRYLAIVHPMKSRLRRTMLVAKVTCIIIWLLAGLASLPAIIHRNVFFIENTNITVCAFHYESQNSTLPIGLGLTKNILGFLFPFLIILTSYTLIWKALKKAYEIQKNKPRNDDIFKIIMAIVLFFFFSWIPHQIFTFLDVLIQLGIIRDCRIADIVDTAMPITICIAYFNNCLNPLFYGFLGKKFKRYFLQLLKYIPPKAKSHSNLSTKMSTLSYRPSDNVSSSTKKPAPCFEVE
- assay-details: BRET β-arrestin2 biosensor assay, higher receptor expression (hAT1R 5 ng/well), HEK293 cells
- Assay type: cell-based
readout-kind: BRET β-Arrestin2 High AT1R Expression Ymax (%)

                                    compound  assay_result
 0  CCc1nc2c(C)cc(C)nc2n1Cc1ccc(-c2cc(-c3cccc(C)c3)ccc2C(=O)O)cc1          90.4
 1  CCCCc1ncc(C(=O)NCCO)n1Cc1ccc(-c2cc(-c3ccccc3)ccc2-c2nn[nH]n2)cc1          85.4
 2  CCc1nc2c(C)cc(C)nc2n1Cc1ccc(-c2cc(Oc3cc(N)ccn3)ccc2-c2nn[nH]n2)cc1          80.3
 3  CCc1nc2c(C)cc(C)nc2n1Cc1ccc(-c2cc(Oc3cccc(Cl)c3)ccc2-c2nnn[nH]2)cc1          57.9
 4  CCCCC(=O)N(Cc1ccc(-c2cc(Oc3ccccc3)ccc2-c2nn[nH]n2)cc1)[C@H](C(=O)O)C(C)C          12.3
 5  CCCCc1nc(Cl)c(C(=O)O)n1Cc1ccc(-c2cc(-c3cnn(C(F)F)c3)ccc2-c2nn[nH]n2)cc1          81.9
 6  CCCCC(=O)N(Cc1ccc(-c2cc(-c3ccccc3)ccc2-c2nn[nH]n2)cn1)C1(C(=O)O)CCCCC1          82.5
 7  CCCCC(=O)N(Cc1ccc(-c2cc(-c3ccccc3)ccc2-c2nn[nH]n2)cc1)C1(C(=O)O)CCCC1          80.3
 8  CCc1nc2c(C)cc(C)nc2n1Cc1ccc(-c2cc(-c3ccc(CO)cc3)ccc2C(=O)O)cc1          90.0
 9  CCc1nc2c(C)cc(C)nc2n1Cc1ccc(-c2cc(-c3cccc(C)c3)ccc2-c2nnn[nH]2)cn1          91.8
10  CCCCC(=O)N(Cc1ccc(-c2cc(-c3ccccc3)ccc2-c2nn[nH]n2)nc1)[C@H](C(=O)O)C(C)C          78.9
11  CCCCC(=O)N(Cc1ccc(-c2cc(-c3cc(C)ccn3)ccc2-c2nn[nH]n2)cc1)[C@H](C(=O)O)C(C)C          91.3
12  CCc1nc2c(C)cc(C)nc2n1Cc1ccc(-c2cc(-c3cc(C)cc(C)c3)ccc2C(=O)O)cc1          94.1
13  CCCCc1ncc(C(=O)N2CCC2)n1Cc1ccc(-c2cc(-c3ccccc3)ccc2-c2nn[nH]n2)cc1          85.5
14  CCCCC(=O)N(Cc1ccc(-c2cc(-c3ccc(NC(C)=O)cc3)ccc2-c2nn[nH]n2)cc1)[C@H](C(=O)O)C(C)C          50.1
15  CCCCc1nc(Cl)c(C(=O)O)n1Cc1ccc(-c2cc(-c3cncc(OC)c3)ccc2-c2nn[nH]n2)cc1          87.0
16  CCc1nc2c(C)cc(C)nc2n1Cc1ccc(-c2cc(Oc3cccc(OC(F)(F)F)c3)ccc2-c2nnn[nH]2)cc1          74.8
17  CCc1nc2c(C)cc(C)nc2n1Cc1ccc(-c2cc(-c3ccccc3)ccc2-c2nn[nH]n2)cc1          95.4
18  CCc1nc2c(C)cc(C)nc2n1Cc1ncc(-c2cc(-c3ccccc3)ccc2-c2nnn[nH]2)cn1          88.8
19  CCCCc1ncc(C(=O)NC2CCCC2)n1Cc1ccc(-c2cc(-c3ccccc3)ccc2-c2nn[nH]n2)cc1          80.9
